# Ki per entry for Carbonic anhydrase 2 (Homo sapiens)
Quantity kind: Ki (nM)

Examples with their reported Ki follow.
| Smiles representation | Quantity kind | Numeric result |
| --- | --- | --- |
| NS(=O)(=O)NCc1csc(-c2ccc(S(=O)(=O)c3ccc(Cl)cc3)cc2)n1 | Ki | 24 |
| NS(=O)(=O)NCc1csc(-c2ccc(S(=O)(=O)c3ccccc3)cc2)n1 | Ki | 28 |

A = NS(=O)(=O)OCc1csc(-c2ccc(S(=O)(=O)c3ccc(Cl)cc3)cc2)n1
B = NS(=O)(=O)OCc1csc(-c2ccc(S(=O)(=O)c3ccc(Br)cc3)cc2)n1
Prompt line: // which entry reports the smaller Ki, A or B ? Answer by quoting the chosen item's label.
Response line: B
(B: 21 nM, A: 30 nM)

###

Molecular target: Carbonic anhydrase 1 (Homo sapiens)
Sequence (P00915 whole entry): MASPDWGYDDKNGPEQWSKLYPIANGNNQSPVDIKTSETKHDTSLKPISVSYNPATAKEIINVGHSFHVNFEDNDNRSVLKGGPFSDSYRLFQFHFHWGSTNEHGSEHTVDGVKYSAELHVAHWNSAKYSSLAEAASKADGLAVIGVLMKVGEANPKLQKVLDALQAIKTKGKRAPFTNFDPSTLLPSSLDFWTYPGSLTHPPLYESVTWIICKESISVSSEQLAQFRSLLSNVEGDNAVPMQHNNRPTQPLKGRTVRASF
The entries below are paired with their reported Ki.

| Smiles representation | Tested target | Quantity kind | Result |
| --- | --- | --- | --- |
| NS(=O)(=O)NCc1csc(-c2ccc(S(=O)(=O)c3ccccc3)cc2)n1 | Carbonic anhydrase 1 (Homo sapiens) | Ki | > 1 µM |

Prompt line: Name the reported Ki value associated with the compound `NS(=O)(=O)OCc1csc(-c2ccc(S(=O)(=O)c3ccc(Cl)cc3)cc2)n1`
Response line: > 1 µM

###

Target: Carbonic anhydrase 4 (Bos taurus, UniProt Q95323)
Sequence (Q95323 whole entry): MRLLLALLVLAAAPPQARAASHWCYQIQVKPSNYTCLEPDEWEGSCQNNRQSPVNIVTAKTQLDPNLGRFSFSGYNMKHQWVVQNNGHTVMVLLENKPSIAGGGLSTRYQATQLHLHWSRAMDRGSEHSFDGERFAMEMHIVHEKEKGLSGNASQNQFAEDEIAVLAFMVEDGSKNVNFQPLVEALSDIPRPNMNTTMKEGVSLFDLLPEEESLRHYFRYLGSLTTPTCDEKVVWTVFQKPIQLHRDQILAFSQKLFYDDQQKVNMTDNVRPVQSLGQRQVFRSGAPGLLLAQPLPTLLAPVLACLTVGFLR
pKi: −log10 of the molar value.
Quantity kind: pKi

A = NS(=O)(=O)NCc1csc(-c2ccc(S(=O)(=O)c3ccc(Br)cc3)cc2)n1
B = NS(=O)(=O)NCc1csc(-c2ccc(S(=O)(=O)c3ccccc3)cc2)n1
Prompt line: // which entry reports the smaller pKi, A or B ? Answer by quoting the chosen item's label.
Response line: B
